- testedOn: T1, AFP158/HLA-A*02:01 complex (human)
- T1 construct: flowed over the chip in SPR; also called AFP158 pro
- experimentalDetails: SPR, KD ratio to AS170036 VL1VH1;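 also: crude scFv captured on a sensor chip, peptide–HLA complex passed over at several concentrations, association then buffer dissociation, KD derived from on- and off-rates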
measuredQuantity: Affinity increase

Here's what some known entries look like.
binder	result
LE32G (scFv, AS170036 VL1VH1 scFv mutein) scFv: QSALTQPRSVSGSPGQSVTISCAGTSSDVGSGNYVSWYQQHPGKAPKLMIYQVNKRASGVPDRFSGSKSGNTASLTISGLQAEDEADYYCASYRSSDHNIVFGGGTKLTVLGGGGSGGGGSGGGGSEVQLVESGGGLVQPGGSLRLSCAASGFTFSSYAMSWVRQAPGKGLEWVSTINSGTGSPYYADSVKGRFTISRDNSKNTLYLQMNSLRAEDTAVYYCAKNFFDGSWFLGPPAMDYWGQGTLVTVSSHHHHHH	0.7 fold
LH98G (scFv, AS170036 VL1VH1 scFv mutein) scFv: QSALTQPRSVSGSPGQSVTISCAGTSSDVGSENYVSWYQQHPGKAPKLMIYQVNKRASGVPDRFSGSKSGNTASLTISGLQAEDEADYYCASYRSSDGNIVFGGGTKLTVLGGGGSGGGGSGGGGSEVQLVESGGGLVQPGGSLRLSCAASGFTFSSYAMSWVRQAPGKGLEWVSTINSGTGSPYYADSVKGRFTISRDNSKNTLYLQMNSLRAEDTAVYYCAKNFFDGSWFLGPPAMDYWGQGTLVTVSSHHHHHH	0.9 fold
LE32T (scFv, AS170036 VL1VH1 scFv mutein) scFv: QSALTQPRSVSGSPGQSVTISCAGTSSDVGSTNYVSWYQQHPGKAPKLMIYQVNKRASGVPDRFSGSKSGNTASLTISGLQAEDEADYYCASYRSSDHNIVFGGGTKLTVLGGGGSGGGGSGGGGSEVQLVESGGGLVQPGGSLRLSCAASGFTFSSYAMSWVRQAPGKGLEWVSTINSGTGSPYYADSVKGRFTISRDNSKNTLYLQMNSLRAEDTAVYYCAKNFFDGSWFLGPPAMDYWGQGTLVTVSSHHHHHH	0.3 fold
LY93W (scFv, AS170036 VL1VH1 scFv mutein) scFv: QSALTQPRSVSGSPGQSVTISCAGTSSDVGSENYVSWYQQHPGKAPKLMIYQVNKRASGVPDRFSGSKSGNTASLTISGLQAEDEADYYCASWRSSDHNIVFGGGTKLTVLGGGGSGGGGSGGGGSEVQLVESGGGLVQPGGSLRLSCAASGFTFSSYAMSWVRQAPGKGLEWVSTINSGTGSPYYADSVKGRFTISRDNSKNTLYLQMNSLRAEDTAVYYCAKNFFDGSWFLGPPAMDYWGQGTLVTVSSHHHHHH	1 fold
LD97H (scFv, AS170036 VL1VH1 scFv mutein) scFv: QSALTQPRSVSGSPGQSVTISCAGTSSDVGSENYVSWYQQHPGKAPKLMIYQVNKRASGVPDRFSGSKSGNTASLTISGLQAEDEADYYCASYRSSHHNIVFGGGTKLTVLGGGGSGGGGSGGGGSEVQLVESGGGLVQPGGSLRLSCAASGFTFSSYAMSWVRQAPGKGLEWVSTINSGTGSPYYADSVKGRFTISRDNSKNTLYLQMNSLRAEDTAVYYCAKNFFDGSWFLGPPAMDYWGQGTLVTVSSHHHHHH	0.6 fold

**Q:** Field request: Affinity increase | item: LY34V (scFv, AS170036 VL1VH1 scFv mutein) scFv: QSALTQPRSVSGSPGQSVTISCAGTSSDVGSENVVSWYQQHPGKAPKLMIYQVNKRASGVPDRFSGSKSGNTASLTISGLQAEDEADYYCASYRSSDHNIVFGGGTKLTVLGGGGSGGGGSGGGGSEVQLVESGGGLVQPGGSLRLSCAASGFTFSSYAMSWVRQAPGKGLEWVSTINSGTGSPYYADSVKGRFTISRDNSKNTLYLQMNSLRAEDTAVYYCAKNFFDGSWFLGPPAMDYWGQGTLVTVSSHHHHHH
**A:** 0.3 fold

**Q:** Field request: Affinity increase | item: LE32Y (scFv, AS170036 VL1VH1 scFv mutein) scFv: QSALTQPRSVSGSPGQSVTISCAGTSSDVGSYNYVSWYQQHPGKAPKLMIYQVNKRASGVPDRFSGSKSGNTASLTISGLQAEDEADYYCASYRSSDHNIVFGGGTKLTVLGGGGSGGGGSGGGGSEVQLVESGGGLVQPGGSLRLSCAASGFTFSSYAMSWVRQAPGKGLEWVSTINSGTGSPYYADSVKGRFTISRDNSKNTLYLQMNSLRAEDTAVYYCAKNFFDGSWFLGPPAMDYWGQGTLVTVSSHHHHHH
**A:** 0.6 fold

**Q:** Field request: Affinity increase | item: LD97M (scFv, AS170036 VL1VH1 scFv mutein) scFv: QSALTQPRSVSGSPGQSVTISCAGTSSDVGSENYVSWYQQHPGKAPKLMIYQVNKRASGVPDRFSGSKSGNTASLTISGLQAEDEADYYCASYRSSMHNIVFGGGTKLTVLGGGGSGGGGSGGGGSEVQLVESGGGLVQPGGSLRLSCAASGFTFSSYAMSWVRQAPGKGLEWVSTINSGTGSPYYADSVKGRFTISRDNSKNTLYLQMNSLRAEDTAVYYCAKNFFDGSWFLGPPAMDYWGQGTLVTVSSHHHHHH
**A:** 0.4 fold

**Q:** Field request: Affinity increase | item: LE32L (scFv, AS170036 VL1VH1 scFv mutein) scFv: QSALTQPRSVSGSPGQSVTISCAGTSSDVGSLNYVSWYQQHPGKAPKLMIYQVNKRASGVPDRFSGSKSGNTASLTISGLQAEDEADYYCASYRSSDHNIVFGGGTKLTVLGGGGSGGGGSGGGGSEVQLVESGGGLVQPGGSLRLSCAASGFTFSSYAMSWVRQAPGKGLEWVSTINSGTGSPYYADSVKGRFTISRDNSKNTLYLQMNSLRAEDTAVYYCAKNFFDGSWFLGPPAMDYWGQGTLVTVSSHHHHHH
**A:** 0.3 fold

src = patent US20240279318A1
